Data origin, for the record: ChEMBL document CHEMBL3885881

Organism: Rattus norvegicus
measurement_protocol: DrugMatrix - Regimen: Daily Repeat
Format: toxicity, organism-based, Sprague-Dawley
Design: regimen Daily Repeat, gender Male, age 6-8 weeks
cond: in vivo, po, 0 mg/kg, 2184 h, tissue Blood, route oral GAVAGE, dose level Control, time 91 day, vehicle .5 % CMC
reported_property: ABSOLUTE MONOCYTE (cells/µL)
Answers are plain numbers, in cells/µL.

# return recorded ABSOLUTE MONOCYTE for input O=c1cc(-c2ccccc2)oc2c1ccc1ccccc12
160

---

Species: Rattus norvegicus
measurement_protocol: DrugMatrix - Regimen: Daily Repeat
Type: toxicity, organism-based, Sprague-Dawley
Parameters: regimen Daily Repeat, gender Male, age 6-8 weeks
cond: in vivo, po, 0 mg/kg, 120 h, tissue Plasma, route oral GAVAGE, dose level Control, time 5 day, […]
reported_property: CHLORIDE (MEQ/L)
One number for each entry, in MEQ/L.

Before answering, review these 4 worked examples.
>  <compound>
CC1=C(/C=C/C(C)=C/C=C/C(C)=C\C(=O)O)C(C)(C)CCC1

>  <CHLORIDE [MEQ/L]>
98

$$$$
>  <compound>
Cn1cnc([N+](=O)[O-])c1Sc1ncnc2nc[nH]c12

>  <CHLORIDE [MEQ/L]>
103.67

$$$$
>  <compound>
Oc1c(Cl)cc(Cl)cc1Sc1cc(Cl)cc(Cl)c1O

>  <CHLORIDE [MEQ/L]>
98.5

$$$$
>  <compound>
CC(=O)[C@H]1CC[C@H]2[C@@H]3CCC4=CC(=O)CC[C@]4(C)[C@H]3CC[C@]12C

>  <CHLORIDE [MEQ/L]>
98.33

$$$$

For the compound CC(C)(Oc1ccc(CCNC(=O)c2ccc(Cl)cc2)cc1)C(=O)O [BEZAFIBRATE] , give its reported CHLORIDE.
108.4

---

Species on record: Rattus norvegicus
measurement_protocol: DrugMatrix - Regimen: Daily Repeat
Format: toxicity, organism-based, Sprague-Dawley
Design: regimen Daily Repeat, gender Male, age 6-8 weeks
cond: in vivo, po, 0 mg/kg, 120 h, tissue Plasma, route oral GAVAGE, dose level Control, time 5 day, vehicle .5 % CMC
reported_property: CHLORIDE

>  <compound>
Brc1ccccc1

>  <CHLORIDE>
102.17 MEQ/L

$$$$

Would you mind listing CHLORIDE for each of the following compounds?
1. CN1C(C(=O)Nc2ccccn2)=C(O)c2ccccc2S1(=O)=O
2. O=c1[nH]cc(F)c(=O)[nH]1
3. O=C1CCc2cc(OCCCCc3nnnn3C3CCCCC3)ccc2N1
4. Cc1c(-c2ccccc2)oc2c(C(=O)OCCN3CCCCC3)cccc2c1=O [FLAVOXATE]
5. NCC(=O)O

["104 MEQ/L", "100 MEQ/L", "107.67 MEQ/L", "102.33 MEQ/L", "100.67 MEQ/L"]

---

Organism: Rattus norvegicus
measurement_protocol: DrugMatrix - Regimen: Daily Repeat
Type: toxicity, organism-based, Sprague-Dawley
Parameters: regimen Daily Repeat, gender Male, age 6-8 weeks
cond: in vivo, po, 0 mg/kg, 120 h, tissue Blood, route oral GAVAGE, dose level Control, time 5 day, vehicle .5 % CMC
Provide the recorded MEAN CORPUSCULAR VOLUME for the entries that follow.
Answers are plain numbers, in fL.

# example entries with known answers
>  <compound>
O=c1cc(-c2ccccc2)oc2c1ccc1ccccc12

>  <endpoint_result>
61.42

$$$$
>  <compound>
CCc1cccc2c3c([nH]c12)C(CC)(CC(=O)O)OCC3 (centres undefined)

>  <endpoint_result>
63.72

$$$$
>  <compound>
CC1(C)[C@H]2CC[C@]1(C)C(=O)C2 [(-)-CAMPHOR]

>  <endpoint_result>
61.92

$$$$
>  <compound>
CCOC(=O)OC(C)OC1=C(C(=O)Nc2ccccn2)N(C)S(=O)(=O)c2ccccc21 (centres undefined)

>  <endpoint_result>
59.97

$$$$
>  <compound>
Cc1c(-c2ccccc2)oc2c(C(=O)OCCN3CCCCC3)cccc2c1=O [FLAVOXATE]

>  <endpoint_result>
62.7

$$$$
>  <compound>
CCC[C@@H]1C[C@@H](C(=O)N[C@@H]([C@H]2O[C@H](SC)[C@H](O)[C@@H](O)[C@H]2O)[C@@H](C)O)N(C)C1

>  <endpoint_result>
61.82

$$$$

Could you tell me MEAN CORPUSCULAR VOLUME for each of these compounds? They are listed below.
1. CC(C)[C@H](N)C(=O)OCCOCn1cnc2c(=O)[nH]c(N)nc21
2. CN1CCC[C@@H]1CCO[C@](C)(c1ccccc1)c1ccc(Cl)cc1
3. CN1C(C(=O)Nc2ccccn2)=C(O)c2ccccc2S1(=O)=O
4. COC(=O)c1ccc(O)cc1
5. COc1c(C)c2c(c(O)c1C/C=C(\C)CCC(=O)OCCN1CCOCC1)C(=O)OC2 [MYCOPHENOLATE MOFETIL]
6. CC(/C=C1\SC(=S)N(CC(=O)O)C1=O)=C\c1ccccc1
7. O=c1[nH]cc(F)c(=O)[nH]1
8. C[C@]12CCC(=O)C=C1CC[C@@H]1[C@@H]2C(=O)C[C@@]2(C)[C@H]1CC[C@]2(O)C(=O)CO

[61.53, 63.67, 64.47, 63.13, 63.67, 63.67, 64.7, 63.72]
